target: Fibroblast growth factor receptor 2 (Homo sapiens); conditions: at 0.1 µM;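 also: values are mean percent inhibition of FGFR2 kinase, measured within the GSK Published Kinase Inhibitor Set (PKIS) screening panel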
# inhibition values compiled below
MEASURED PARAMETER: inhibition

> print(dat)
                             compound.smiles  assay.result
 1  CCc1ccc(Oc2nccc(-c3c(-c4ccc(F)cc4)ncn3C3CCNCC3)n2)cc1         9.05%
 2   O=C1Nc2ccc(I)cc2C1=Cc1cc(Br)c(O)c(Br)c1         8.24%
 3  COc1cc(N2CCN(C(C)C)CC2)ccc1Nc1nc(Nc2ccc(F)cc2C(=O)NC[C@@H](O)CO)c2cc[nH]c2n1         1.11%
 4    O=C1Nc2ccccc2/C1=C/Nc1ccc(-n2cncn2)cc1         5.38%
 5  NS(=O)(=O)c1ccc(N/N=C2\C(=O)Nc3ccc(-c4cnco4)cc32)cc1         -0.2%
 6  O=C(Nc1n[nH]c2cc(-c3cc(F)ccc3F)ccc12)C1CC1         1.35%
 7  COc1ccc2ncn(-c3cc(O[C@H](C)c4ccccc4Cl)c(C(N)=O)s3)c2c1        -0.16%
 8              CCc1nccc2c1nc(-c1nonc1N)n2CC        -1.59%
 9  Fc1ccc(-c2ncn(C3CCNCC3)c2-c2ccnc(Oc3ccc(Oc4ccccc4)cc3)n2)cc1         6.96%
10  Cc1ccc(NC(=O)c2ccoc2)cc1-c1ccc(C(=O)NCC2CC2)cc1         0.64%
11  COc1cc(Nc2ncc3c(C)nc(-c4cccc(C(F)(F)F)c4)n3n2)cc(OC)c1OC         1.87%
12     NCc1ccc(-n2c(-c3nonc3N)nc3cnccc32)cc1          6.5%
13  C[C@@H](Oc1cc(-n2cnc3ccc(OCC4CCN(C)CC4)cc32)sc1C(N)=O)c1ccccc1Cl         9.46%
14  C#Cc1cccc(Nc2ncnc3ccc(OCCCCNCCS(C)(=O)=O)cc23)c1          1.4%
15  Cc1ccc(C(=O)NC(C)C)cc1-c1ccc(C(=O)NCC2CC2)cc1        -4.22%

---

# inhibition values compiled below
target: MAP/microtubule affinity-regulating kinase 3 (Homo sapiens) (UniProt P27448); settings: at 1 µM;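 also: reported values are averaged percent inhibition of MARK3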
Sequence (P27448 whole entry, looked up): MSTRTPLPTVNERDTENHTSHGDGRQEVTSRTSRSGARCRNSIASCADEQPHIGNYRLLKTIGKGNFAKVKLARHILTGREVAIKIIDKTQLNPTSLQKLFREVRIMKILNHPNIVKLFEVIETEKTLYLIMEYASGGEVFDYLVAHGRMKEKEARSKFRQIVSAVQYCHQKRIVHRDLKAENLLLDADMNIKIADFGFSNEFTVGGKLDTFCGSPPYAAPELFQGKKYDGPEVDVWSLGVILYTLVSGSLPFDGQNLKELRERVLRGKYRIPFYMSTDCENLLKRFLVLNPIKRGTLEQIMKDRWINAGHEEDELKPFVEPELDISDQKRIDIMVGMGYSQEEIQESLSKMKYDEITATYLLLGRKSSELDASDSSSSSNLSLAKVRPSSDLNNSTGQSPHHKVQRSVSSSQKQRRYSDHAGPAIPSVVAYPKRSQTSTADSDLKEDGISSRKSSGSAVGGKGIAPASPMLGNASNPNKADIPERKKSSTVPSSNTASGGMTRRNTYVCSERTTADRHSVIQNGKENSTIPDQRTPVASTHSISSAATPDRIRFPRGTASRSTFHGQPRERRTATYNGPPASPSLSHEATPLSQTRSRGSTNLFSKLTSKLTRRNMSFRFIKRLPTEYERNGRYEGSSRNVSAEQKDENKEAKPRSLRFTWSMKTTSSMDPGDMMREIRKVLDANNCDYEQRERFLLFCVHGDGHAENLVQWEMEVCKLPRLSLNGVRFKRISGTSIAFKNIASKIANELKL
MEASURED PARAMETER: inhibition (%)

> print(dat)
                            compound.smiles                          target.or.system  assay.result
1     COc1cc(Nc2ncc(-c3ccccc3)o2)cc(OC)c1OC  MAP/microtubule affinity-regulating kinase 3 (Homo sapiens) (UniProt P27448)          22.1
2  Cc1nnc(-c2ccc(C)c(-c3ccc(C(=O)NCc4ccc(Cl)cc4)cc3)c2)o1  MAP/microtubule affinity-regulating kinase 3 (Homo sapiens) (UniProt P27448)          -1.1
3  O=C(Nc1n[nH]c2cc(-c3cc(F)ccc3F)ccc12)C1CC1  MAP/microtubule affinity-regulating kinase 3 (Homo sapiens) (UniProt P27448)         -0.14
4  COc1cc(N2CCN(C(C)C)CC2)ccc1Nc1nc(Nc2ccc(F)cc2C(=O)NC[C@@H](O)CO)c2cc[nH]c2n1  MAP/microtubule affinity-regulating kinase 3 (Homo sapiens) (UniProt P27448)          19.6

FYI, the data here is from ChEMBL document CHEMBL1961873.
